- Tested on: CYP2B6
- assay-name: in vitro
- Assay type: in vitro ADME, human
- experimental-context: human, CYP2B6 enzyme activity fold induction, donor one, 10 µM
result-type: fold induction at 48 h, 10 µM
// print number alone

Look up CYP2B6 data: fold induction at 48 h, 10 µM of COc1c(N2CCNC(C)C2)c(F)cc2c(=O)c(C(=O)O)cn(C3CC3)c12 (stereo not shown) [Gatifloxacin, reference compound] , then report it. 0.719

###

- assayed-target: CYP2D6 (Homo sapiens)
- Sequence (P10635 whole entry): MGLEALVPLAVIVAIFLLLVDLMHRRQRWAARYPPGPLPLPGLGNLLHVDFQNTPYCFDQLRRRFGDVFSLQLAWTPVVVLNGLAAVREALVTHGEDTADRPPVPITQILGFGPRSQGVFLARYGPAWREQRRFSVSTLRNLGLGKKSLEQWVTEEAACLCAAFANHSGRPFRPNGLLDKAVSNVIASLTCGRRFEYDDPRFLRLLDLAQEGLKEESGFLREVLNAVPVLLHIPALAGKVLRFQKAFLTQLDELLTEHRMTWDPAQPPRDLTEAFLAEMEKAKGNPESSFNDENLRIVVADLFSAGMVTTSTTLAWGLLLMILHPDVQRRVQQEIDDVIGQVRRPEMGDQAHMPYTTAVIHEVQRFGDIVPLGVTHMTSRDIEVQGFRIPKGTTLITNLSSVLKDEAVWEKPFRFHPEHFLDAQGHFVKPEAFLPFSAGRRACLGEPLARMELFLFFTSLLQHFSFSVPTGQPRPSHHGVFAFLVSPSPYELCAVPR
- assay-name: CYP inhibition in pooled human liver microsomes, dextromethorphan probe
- Type: in vitro ADME
- experimental-context: read-out: IC50, No preincubation; CYP2D6, pooled HLMs, n = 3
result-type: IC50

Dear colleague, please send me the reported IC50 for CC1=N[C@]2(C(=O)CO)[C@@H](C[C@H]3[C@@H]4C[C@@H](O)C5=CC(=O)C=C[C@]5(C)[C@H]4[C@@H](O)C[C@@]32C)O1 [6β‐OH‐21‐desDFZ, 6β‐Hydroxy‐21‐desacetyl deflazacort] when you can. > 50 µM

###

- Test system: CYP1A2
- assay-name: in vitro
- Assay type: in vitro ADME, human
- experimental-context: human, CYP1A2 enzyme activity fold induction, donor three, 10 µM
result-type: fold induction at 48 h, 10 µM
// print number alone

Dear colleague, please send me the reported fold induction at 48 h, 10 µM for COc1c(N2CCNC(C)C2)c(F)cc2c(=O)c(C(=O)O)cn(C3CC3)c12 (stereo not shown) [Gatifloxacin, reference compound] when you can. 0.996

###

- Test system: CYP1A2
- assay-name: in vitro
- Format: in vitro ADME, human
- experimental-context: human, CYP1A2 mRNA fold induction, donor three, 100 µM
result-type: fold induction at 48 h, 100 µM
// print number alone

Dear colleague, please send me the reported fold induction at 48 h, 100 µM for COc1ccc2[nH]c([S+]([O-])Cc3ncc(C)c(OC)c3C)nc2c1 (stereo not shown) [Omeprazole, reference compound] when you can. 40.5

###

- assayed-target: CYP2C9 (Homo sapiens)
- Sequence (P11712 whole entry): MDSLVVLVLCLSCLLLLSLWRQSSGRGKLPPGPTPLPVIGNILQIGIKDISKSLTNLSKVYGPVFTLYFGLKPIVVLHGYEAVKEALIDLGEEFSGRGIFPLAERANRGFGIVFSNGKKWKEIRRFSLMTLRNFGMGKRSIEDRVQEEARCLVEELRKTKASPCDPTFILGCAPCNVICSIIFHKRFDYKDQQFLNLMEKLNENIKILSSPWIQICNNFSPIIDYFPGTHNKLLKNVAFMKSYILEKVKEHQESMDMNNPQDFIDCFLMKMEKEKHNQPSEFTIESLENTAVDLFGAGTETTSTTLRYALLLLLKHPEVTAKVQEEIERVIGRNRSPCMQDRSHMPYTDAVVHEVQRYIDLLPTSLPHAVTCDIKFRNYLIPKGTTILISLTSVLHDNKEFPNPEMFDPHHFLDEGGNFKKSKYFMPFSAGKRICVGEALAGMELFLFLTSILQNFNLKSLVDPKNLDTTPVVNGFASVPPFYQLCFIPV
- assay-name: CYP inhibition in pooled human liver microsomes, diclofenac probe
- Assay type: in vitro ADME
- experimental-context: read-out: IC50, No preincubation; CYP2C9, pooled HLMs, n = 3
pIC50: −log10 of the molar value.
result-type: pIC50

Dear colleague, please send me the reported pIC50 for CC1=N[C@]2(C(=O)CO)[C@@H](C[C@H]3[C@@H]4C[C@@H](O)C5=CC(=O)C=C[C@]5(C)[C@H]4[C@@H](O)C[C@@]32C)O1 [6β‐OH‐21‐desDFZ, 6β‐Hydroxy‐21‐desacetyl deflazacort] when you can. < 4.30

###

- System: CYP3A4
- assay-name: in vitro
- experimental-context: human, CYP3A4 mRNA fold induction, donor one
result-type: fold induction at 48 h, 10 µM

Dear colleague, please send me the reported fold induction at 48 h, 10 µM for COc1c(N2CCNC(C)C2)c(F)cc2c(=O)c(C(=O)O)cn(C3CC3)c12 (stereo not shown) [Gatifloxacin, reference compound] when you can. 0.612

###

- Test system: CYP2B6
- assay-name: in vitro
- Type: in vitro ADME, human
- experimental-context: human, CYP2B6 mRNA fold induction, donor one, 10 µM
result-type: fold induction at 48 h, 10 µM
// print number alone

Dear colleague, please send me the reported fold induction at 48 h, 10 µM for COc1c(N2CCNC(C)C2)c(F)cc2c(=O)c(C(=O)O)cn(C3CC3)c12 (stereo not shown) [Gatifloxacin, reference compound] when you can. 0.965

###

- assayed-target: CYP3A4 (Homo sapiens, UniProt P08684)
- Sequence (P08684 whole entry): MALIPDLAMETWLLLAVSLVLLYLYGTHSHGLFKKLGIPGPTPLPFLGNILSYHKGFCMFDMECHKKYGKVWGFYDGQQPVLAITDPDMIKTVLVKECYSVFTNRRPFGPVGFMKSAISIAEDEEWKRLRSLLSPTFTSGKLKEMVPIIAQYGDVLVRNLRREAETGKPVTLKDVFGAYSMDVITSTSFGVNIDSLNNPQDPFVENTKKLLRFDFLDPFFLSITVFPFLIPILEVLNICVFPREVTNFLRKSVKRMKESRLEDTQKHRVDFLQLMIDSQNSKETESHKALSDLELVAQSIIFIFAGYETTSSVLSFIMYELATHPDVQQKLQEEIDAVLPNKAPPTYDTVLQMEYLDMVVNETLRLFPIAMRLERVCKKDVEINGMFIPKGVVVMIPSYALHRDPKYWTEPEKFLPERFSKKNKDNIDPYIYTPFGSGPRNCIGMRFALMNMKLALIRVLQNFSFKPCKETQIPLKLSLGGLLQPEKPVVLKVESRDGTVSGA
- assay-name: CYP inhibition in pooled human liver microsomes, midazolam or testosterone probe
- Assay type: in vitro ADME
- experimental-context: read-out: IC50, No preincubation; CYP3A4 (Testosterone), pooled HLMs, n = 3
result-type: IC50

Dear colleague, please send me the reported IC50 for CC1=N[C@]2(C(=O)CO)[C@@H](C[C@H]3[C@@H]4C[C@@H](O)C5=CC(=O)C=C[C@]5(C)[C@H]4[C@@H](O)C[C@@]32C)O1 [6β‐OH‐21‐desDFZ, 6β‐Hydroxy‐21‐desacetyl deflazacort] when you can. > 50 µM

###

- Test system: CYP3A4
- assay-name: in vitro
- experimental-context: human, CYP3A4 enzyme activity fold induction, donor one
result-type: fold induction at 48 h, 10 µM
// print number alone

Dear colleague, please send me the reported fold induction at 48 h, 10 µM for COc1c(N2CCNC(C)C2)c(F)cc2c(=O)c(C(=O)O)cn(C3CC3)c12 (stereo not shown) [Gatifloxacin, reference compound] when you can. 0.881

###

- assayed-target: UniProt P10632
- Sequence (P10632 whole entry): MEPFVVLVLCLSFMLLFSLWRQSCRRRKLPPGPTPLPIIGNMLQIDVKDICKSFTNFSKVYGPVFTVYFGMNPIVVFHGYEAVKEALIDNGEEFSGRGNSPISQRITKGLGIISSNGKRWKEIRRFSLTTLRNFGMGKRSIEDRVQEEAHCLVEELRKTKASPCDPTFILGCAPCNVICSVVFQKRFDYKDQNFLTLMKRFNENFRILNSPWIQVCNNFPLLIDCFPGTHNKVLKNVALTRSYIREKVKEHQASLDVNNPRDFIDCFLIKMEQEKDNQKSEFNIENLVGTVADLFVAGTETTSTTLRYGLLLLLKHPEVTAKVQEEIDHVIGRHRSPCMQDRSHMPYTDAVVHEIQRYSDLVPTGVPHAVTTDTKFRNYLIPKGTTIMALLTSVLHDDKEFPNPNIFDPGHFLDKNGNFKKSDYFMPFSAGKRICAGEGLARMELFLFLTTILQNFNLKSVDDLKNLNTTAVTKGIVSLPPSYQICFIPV
- assay-name: CYP inhibition in pooled human liver microsomes, paclitaxel probe
- Format: in vitro ADME
- experimental-context: read-out: IC50, No preincubation; CYP2C8, pooled HLMs, n = 3
result-type: IC50

Look up UniProt P10632 data: IC50 of CC1=N[C@]2(C(=O)CO)[C@@H](C[C@H]3[C@@H]4C[C@@H](O)C5=CC(=O)C=C[C@]5(C)[C@H]4[C@@H](O)C[C@@]32C)O1 [6β‐OH‐21‐desDFZ, 6β‐Hydroxy‐21‐desacetyl deflazacort] , then report it. > 50 µM

###

- Test system: CYP3A4
- assay-name: in vitro
- experimental-context: human, CYP3A4 mRNA fold induction, donor two
result-type: fold induction at 48 h, 10 µM
// print number alone

Dear colleague, please send me the reported fold induction at 48 h, 10 µM for COc1c(N2CCNC(C)C2)c(F)cc2c(=O)c(C(=O)O)cn(C3CC3)c12 (stereo not shown) [Gatifloxacin, reference compound] when you can. 0.591

###

- Test system: CYP1A2
- assay-name: in vitro
- Type: in vitro ADME, human
- experimental-context: human, CYP1A2 mRNA fold induction, donor one, 10 µM
result-type: fold induction at 48 h, 10 µM

Dear colleague, please send me the reported fold induction at 48 h, 10 µM for COc1c(N2CCNC(C)C2)c(F)cc2c(=O)c(C(=O)O)cn(C3CC3)c12 (stereo not shown) [Gatifloxacin, reference compound] when you can. 0.941

###

- System: CYP1A2
- assay-name: in vitro
- Type: in vitro ADME, human
- experimental-context: human, CYP1A2 enzyme activity fold induction, donor three, 100 µM
result-type: fold induction at 48 h, 100 µM
// print number alone

Dear colleague, please send me the reported fold induction at 48 h, 100 µM for COc1ccc2[nH]c([S+]([O-])Cc3ncc(C)c(OC)c3C)nc2c1 (stereo not shown) [Omeprazole, reference compound] when you can. 8.36

###

- assayed-target: UniProt:P33261
- Sequence (P33261 whole entry): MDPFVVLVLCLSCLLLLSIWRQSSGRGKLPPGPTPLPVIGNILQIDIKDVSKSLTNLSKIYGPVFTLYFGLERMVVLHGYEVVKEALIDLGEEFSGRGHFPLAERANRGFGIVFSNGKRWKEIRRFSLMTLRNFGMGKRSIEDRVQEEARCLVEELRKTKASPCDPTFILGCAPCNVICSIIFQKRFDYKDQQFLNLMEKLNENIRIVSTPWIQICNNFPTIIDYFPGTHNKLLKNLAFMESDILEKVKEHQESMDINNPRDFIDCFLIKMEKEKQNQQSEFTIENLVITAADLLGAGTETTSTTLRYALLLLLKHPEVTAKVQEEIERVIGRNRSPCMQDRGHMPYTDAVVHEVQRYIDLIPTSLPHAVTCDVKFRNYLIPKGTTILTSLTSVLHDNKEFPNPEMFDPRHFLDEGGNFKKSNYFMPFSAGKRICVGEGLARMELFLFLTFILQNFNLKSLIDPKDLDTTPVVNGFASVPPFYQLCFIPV
- assay-name: CYP inhibition in pooled human liver microsomes, S-mephenytoin probe
- Assay type: in vitro ADME
- experimental-context: read-out: IC50, No preincubation; CYP2C19, pooled HLMs, n = 3
result-type: IC50

Look up UniProt:P33261 data: IC50 of CC1=N[C@]2(C(=O)CO)[C@@H](C[C@H]3[C@@H]4C[C@@H](O)C5=CC(=O)C=C[C@]5(C)[C@H]4[C@@H](O)C[C@@]32C)O1 [6β‐OH‐21‐desDFZ, 6β‐Hydroxy‐21‐desacetyl deflazacort] , then report it. ~50 µM

###

- Test system: CYP1A2
- assay-name: in vitro
- Type: in vitro ADME, human
- experimental-context: human, CYP1A2 enzyme activity fold induction, donor two, 100 µM
result-type: fold induction at 48 h, 100 µM
// print number alone

Dear colleague, please send me the reported fold induction at 48 h, 100 µM for COc1ccc2[nH]c([S+]([O-])Cc3ncc(C)c(OC)c3C)nc2c1 (stereo not shown) [Omeprazole, reference compound] when you can. 5.48

###

- System: CYP1A2
- assay-name: in vitro
- Assay type: in vitro ADME, human
- experimental-context: human, CYP1A2 enzyme activity fold induction, donor one, 10 µM
result-type: fold induction at 48 h, 10 µM
// print number alone

Dear colleague, please send me the reported fold induction at 48 h, 10 µM for COc1c(N2CCNC(C)C2)c(F)cc2c(=O)c(C(=O)O)cn(C3CC3)c12 (stereo not shown) [Gatifloxacin, reference compound] when you can. 0.744

###

- Test system: CYP1A2
- assay-name: in vitro
- Format: in vitro ADME, human
- experimental-context: human, CYP1A2 mRNA fold induction, donor three, 10 µM
result-type: fold induction at 48 h, 10 µM
// print number alone

Dear colleague, please send me the reported fold induction at 48 h, 10 µM for COc1c(N2CCNC(C)C2)c(F)cc2c(=O)c(C(=O)O)cn(C3CC3)c12 (stereo not shown) [Gatifloxacin, reference compound] when you can. 0.898

###

- Tested on: CYP1A2
- assay-name: in vitro
- Assay type: in vitro ADME, human
- experimental-context: human, CYP1A2 mRNA fold induction, donor two, 100 µM
result-type: fold induction at 48 h, 100 µM
// print number alone

Dear colleague, please send me the reported fold induction at 48 h, 100 µM for COc1ccc2[nH]c([S+]([O-])Cc3ncc(C)c(OC)c3C)nc2c1 (stereo not shown) [Omeprazole, reference compound] when you can. 34.8
